Entries and their measured koff follow.
Target: T1, His-tagged CEACAM1 (human, UniProt P13688 35-428)
T1 construct: 45 kDa SPR analyte; also called CEACAM1-HIS; CEACAM1 analyte
T1 sequence: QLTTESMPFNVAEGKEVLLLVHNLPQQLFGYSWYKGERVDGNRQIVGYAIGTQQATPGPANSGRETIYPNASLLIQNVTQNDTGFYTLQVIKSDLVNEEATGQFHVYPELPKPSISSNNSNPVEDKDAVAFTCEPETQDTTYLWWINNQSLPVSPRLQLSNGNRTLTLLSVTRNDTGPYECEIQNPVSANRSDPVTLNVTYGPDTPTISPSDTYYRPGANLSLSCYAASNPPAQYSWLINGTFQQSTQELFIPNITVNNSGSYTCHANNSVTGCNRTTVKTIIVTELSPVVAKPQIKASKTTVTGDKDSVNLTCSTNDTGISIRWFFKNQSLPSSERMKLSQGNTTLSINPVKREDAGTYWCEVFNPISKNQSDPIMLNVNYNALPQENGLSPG
Experiment: SPR single-cycle, supernatant IgG captured
# number only, unit s⁻¹ dropped from output

Sample records with koff:
• CP08D11/Vκ8 S29A (antibody, IgG4, V domains shown, IgG4 (S241P), kappa) VH: EVQLLESGGGLVQPGGSLRLSCAASGYSFSAHGMSWVRQAPGKGLEWVATISSGGTYTYYPDSVKGRFTISRDNSKNTLYLQMNSLKAEDTAMYYCARHDFDYDAAWFAYWGQGTLVTVSS VL: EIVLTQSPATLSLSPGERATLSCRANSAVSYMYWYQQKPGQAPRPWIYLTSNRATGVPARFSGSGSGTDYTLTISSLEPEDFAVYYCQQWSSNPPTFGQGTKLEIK = 0.17
• CP09E05/Vκ8 S29A (antibody, IgG4, V domains shown, IgG4 (S241P), kappa) VH: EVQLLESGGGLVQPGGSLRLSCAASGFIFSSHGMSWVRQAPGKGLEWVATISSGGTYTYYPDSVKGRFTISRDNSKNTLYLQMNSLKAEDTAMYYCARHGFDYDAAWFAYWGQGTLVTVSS VL: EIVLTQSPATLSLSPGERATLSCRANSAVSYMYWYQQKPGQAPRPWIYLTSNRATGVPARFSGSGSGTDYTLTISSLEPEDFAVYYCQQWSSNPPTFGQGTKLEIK = 0.037

Report koff for VH1/CP08D02 (antibody, IgG4, V domains shown, IgG4 (S241P), kappa; also called Parent VH/CP08D02) VH: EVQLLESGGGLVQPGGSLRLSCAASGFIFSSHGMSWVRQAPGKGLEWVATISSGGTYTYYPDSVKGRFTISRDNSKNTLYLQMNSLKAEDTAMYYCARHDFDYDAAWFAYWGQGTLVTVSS VL: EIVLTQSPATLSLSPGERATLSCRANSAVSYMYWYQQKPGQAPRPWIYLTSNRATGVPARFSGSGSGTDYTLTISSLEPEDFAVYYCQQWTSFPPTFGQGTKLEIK please. 0.043
